Consider the following binders and their measured surviving mice; i.c.v.; 4 LD50 AahI'; ratio 1:2 (survivors of 4 mice) readings.
experimentalTarget: AahI' toxin of Androctonus australis hector (Androctonus australis hector) (UniProt P01479)
Sequence (P01479 20-82): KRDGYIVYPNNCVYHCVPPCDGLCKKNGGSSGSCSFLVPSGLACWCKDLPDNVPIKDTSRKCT
methodNotes: cell-based or functional assay
Give a plain numeric answer without units written out.

Consider the following illustrative entries.
| binder | resultNumber |
| --- | --- |
| AahI'D19 (VHH) VHH: QVQLQESGGGLVQPGGSLRLSCAVTDFTFSFYWMYWVRQAPGKNLEWISSLHSDGYTYYPDSVKGRFTISRDTAKNMLYLQMNSLKPEDTAVYYCATAIRNMWGQAAPGSAGYWGQGTQVTVSS | 4 |
| AahI'A2 (VHH) VHH: QVQLQESGGGSVQAGGSLRLSCAASGFPASSYCMAWFRQAPGKEREGLAAIYNGGRRYYPDSLKGRFTIEDKAENTIYLEMNSLKPEDTATYYCAARSNQCWYATLQQSWYPYWGQGTQVTVSS | 0 |
| AahI'B1 (VHH) VHH: QVQLQESGGGSVQAGGSLRLSCTASKYTSAVGWFRQAPGKEREGVASIYGYTGSGSSGSTYYADSGKGRFTISRDSAKNMVYLQMNSLKPEDTAMYYCTAADRPRFRLLVEDDVVYWGQGTQVTVSS | 0 |

Now examine the next entry.
# input Recorded surviving mice; i.c.v.; 4 LD50 AahI'; ratio 1:2 (survivors of 4 mice) of AahI'A19 (VHH) VHH: QVQLQESGGGSVQAGGSLRLSCVASEYSECIGWFRQAPGKEREGVAAIEKVLGQRWRADSIHDRITISQDKAKNTVYLQMTSLKIDDTAMYYCAAKGRGCMSQPTTGYLSWGQGTQVTVSS , please.
# output 4
